The origin of these recorded values is ChEMBL document CHEMBL3864177.

Below are Ki values measured for Cruzipain (Trypanosoma cruzi, UniProt P25779).
Output spec: scalar in nM, unitless text.

Examples from the recorded data:
{"columns": ["molecule", "Ki / nM"],
 "data": [
  ["CC(C)C[C@@H](/C=C/[N+](=O)[O-])NC(=O)[C@H](Cc1ccccc1)NC(=O)OCc1ccccc1", 16],
  ["O=C(N[C@@H](Cc1ccccc1)C(=O)N[C@H](/C=C/[N+](=O)[O-])CCc1ccccc1)OCc1ccccc1", 11],
  ["C[C@@H](/C=C/[N+](=O)[O-])NC(=O)[C@H](Cc1ccccc1)NC(=O)OCc1ccccc1", 0.44]
]}

Lookup: Respond only with Ki recorded for CC(C)C[C@H](NC(=O)OCc1ccccc1)C(=O)N[C@@H](C)/C=C/[N+](=O)[O-]
Found: 130

---

pKi values for the molecules below.
# systemUnderTest: Rhodesain (Trypanosoma brucei rhodesiense, UniProt Q95PM0)
# Sequence (Q95PM0 whole entry): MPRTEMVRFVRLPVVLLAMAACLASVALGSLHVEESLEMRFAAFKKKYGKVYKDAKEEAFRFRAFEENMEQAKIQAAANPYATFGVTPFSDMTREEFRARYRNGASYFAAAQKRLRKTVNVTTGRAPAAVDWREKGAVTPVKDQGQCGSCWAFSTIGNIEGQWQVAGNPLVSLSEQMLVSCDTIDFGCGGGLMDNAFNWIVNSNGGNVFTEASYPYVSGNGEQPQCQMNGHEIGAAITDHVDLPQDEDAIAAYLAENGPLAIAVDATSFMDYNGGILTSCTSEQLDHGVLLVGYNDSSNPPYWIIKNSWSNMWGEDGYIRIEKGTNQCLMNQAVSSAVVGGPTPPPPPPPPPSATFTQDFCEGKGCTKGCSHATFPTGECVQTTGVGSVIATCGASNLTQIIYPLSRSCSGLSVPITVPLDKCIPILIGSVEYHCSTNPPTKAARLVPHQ
Please keep in mind that pKi is minus log10 of the molar concentration; only the number is needed.

Lookup: Find pKi for C[C@@H](/C=C/[N+](=O)[O-])NC(=O)[C@H](Cc1ccccc1)NC(=O)OCc1ccccc1 on Rhodesain (Trypanosoma brucei rhodesiense, UniProt Q95PM0) and write it down.
Found: 9.31

Lookup: Find pKi for CC(C)C[C@H](NC(=O)OCc1ccccc1)C(=O)N[C@@H](C)/C=C/[N+](=O)[O-] on Rhodesain (Trypanosoma brucei rhodesiense, UniProt Q95PM0) and write it down.
Found: 7.52

Lookup: Find pKi for O=C(N[C@@H](Cc1ccccc1)C(=O)N[C@H](/C=C/[N+](=O)[O-])CCc1ccccc1)OCc1ccccc1 on Rhodesain (Trypanosoma brucei rhodesiense, UniProt Q95PM0) and write it down.
Found: 8.38

Lookup: Find pKi for C/C(=C\[C@H](C)NC(=O)[C@H](CC(C)C)NC(=O)OCc1ccccc1)[N+](=O)[O-] on Rhodesain (Trypanosoma brucei rhodesiense, UniProt Q95PM0) and write it down.
Found: 6.26

Lookup: Find pKi for CC(C)C[C@H](NC(=O)OCc1ccccc1)C(=O)N[C@H](/C=C/[N+](=O)[O-])CCc1ccccc1 on Rhodesain (Trypanosoma brucei rhodesiense, UniProt Q95PM0) and write it down.
Found: 7.85

Lookup: Find pKi for CC(C)C[C@H](NC(=O)OCc1ccccc1)C(=O)N[C@H](/C=C/[N+](=O)[O-])Cc1ccccc1 on Rhodesain (Trypanosoma brucei rhodesiense, UniProt Q95PM0) and write it down.
Found: 7.74

Lookup: Find pKi for CC(C)C[C@@H](/C=C/[N+](=O)[O-])NC(=O)[C@H](CC(C)C)NC(=O)OCc1ccccc1 on Rhodesain (Trypanosoma brucei rhodesiense, UniProt Q95PM0) and write it down.
Found: 7.74

---

# systemUnderTest: Cathepsin B (Homo sapiens)
pKi: −log10 of the molar value.
Class 1: pKi at least 7. Class -1: pKi below 7.

Take a look at these entries with their results.
{"columns": ["molecule", "systemUnderTest", "classification"],
 "data": [
  ["CC(C)C[C@H](NC(=O)OCc1ccccc1)C(=O)N[C@H](/C=C/[N+](=O)[O-])Cc1ccccc1", "Cathepsin B (Homo sapiens)", -1],
  ["C[C@@H](/C=C/[N+](=O)[O-])NC(=O)[C@H](Cc1ccccc1)NC(=O)OCc1ccccc1", "Cathepsin B (Homo sapiens)", 1],
  ["O=C(N[C@@H](Cc1ccccc1)C(=O)N[C@H](/C=C/[N+](=O)[O-])CCc1ccccc1)OCc1ccccc1", "Cathepsin B (Homo sapiens)", 1]
]}

Lookup: Can C/C(=C\[C@H](C)NC(=O)[C@H](Cc1ccccc1)NC(=O)OCc1ccccc1)[N+](=O)[O-] be said to have pKi at or above 7?
Found: -1

---

pKi values for the compounds below.
# systemUnderTest: Cruzipain (Trypanosoma cruzi)
# Sequence (P25779 whole entry): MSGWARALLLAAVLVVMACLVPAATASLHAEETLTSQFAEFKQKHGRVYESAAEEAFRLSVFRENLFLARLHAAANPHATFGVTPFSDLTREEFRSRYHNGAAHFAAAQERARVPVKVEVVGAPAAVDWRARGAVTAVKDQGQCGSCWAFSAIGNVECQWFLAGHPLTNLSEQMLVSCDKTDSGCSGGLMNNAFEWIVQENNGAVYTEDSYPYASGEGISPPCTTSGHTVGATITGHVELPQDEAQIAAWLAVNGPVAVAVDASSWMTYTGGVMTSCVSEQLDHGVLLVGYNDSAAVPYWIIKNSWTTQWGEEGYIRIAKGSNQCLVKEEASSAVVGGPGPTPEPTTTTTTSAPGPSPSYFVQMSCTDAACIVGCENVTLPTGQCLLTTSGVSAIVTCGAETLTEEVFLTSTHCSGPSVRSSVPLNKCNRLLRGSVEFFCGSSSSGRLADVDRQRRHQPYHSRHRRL
Please keep in mind that pKi is minus log10 of the molar concentration; only the number is needed.

Examples from the recorded data:
{"columns": ["molecule", "quantityMeasured", "experimentalResult"],
 "data": [
  ["O=C(N[C@@H](Cc1ccccc1)C(=O)N[C@H](/C=C/[N+](=O)[O-])Cc1ccccc1)OCc1ccccc1", "pKi", 6.89],
  ["CC(C)C[C@H](NC(=O)OCc1ccccc1)C(=O)N[C@H](/C=C/[N+](=O)[O-])CCc1ccccc1", "pKi", 7.77],
  ["CC(C)C[C@@H](/C=C/[N+](=O)[O-])NC(=O)[C@H](CC(C)C)NC(=O)OCc1ccccc1", "pKi", 7.60]
]}

Lookup: Find pKi for CC(C)C[C@H](NC(=O)OCc1ccccc1)C(=O)N[C@H](/C=C/[N+](=O)[O-])Cc1ccccc1 on Cruzipain (Trypanosoma cruzi) and write it down.
Found: 7.55

---

# systemUnderTest: Rhodesain (Trypanosoma brucei rhodesiense)
# testSummary: Reversible inhibition of Trypanosoma brucei rhodesiense rhodesain assessed as enzyme activity recovery preincubated for 5 mins followed by substrate addition measured after 60 mins by dialysis assay relative to control
# Set-up: scale not given: the % may be the effect or the level left
Activity values for the compounds below.
Output spec: scalar in %, unitless text.

Examples from the recorded data:
{"columns": ["molecule", "systemUnderTest", "readoutUnit", "Activity"],
 "data": [
  ["CC(C)C[C@@H](/C=C/[N+](=O)[O-])NC(=O)[C@H](Cc1ccccc1)NC(=O)OCc1ccccc1", "Rhodesain (Trypanosoma brucei rhodesiense)", "%", 24],
  ["CC(C)C[C@@H](/C=C/[N+](=O)[O-])NC(=O)[C@H](CC(C)C)NC(=O)OCc1ccccc1", "Rhodesain (Trypanosoma brucei rhodesiense)", "%", 26],
  ["CN1CCN(C(=O)N[C@@H](Cc2ccccc2)C(=O)N[C@H](/C=C/S(=O)(=O)c2ccccc2)CCc2ccccc2)CC1", "Rhodesain (Trypanosoma brucei rhodesiense)", "%", 2]
]}

Lookup: Find Activity for CC(C)C[C@H](NC(=O)OCc1ccccc1)C(=O)N[C@H](/C=C/[N+](=O)[O-])CCc1ccccc1 on Rhodesain (Trypanosoma brucei rhodesiense) and write it down.
Found: 46

---

Activity values for the molecules below.
# systemUnderTest: Rhodesain (Trypanosoma brucei rhodesiense)
# testSummary: Reversible inhibition of Trypanosoma brucei rhodesiense rhodesain assessed as enzyme activity recovery preincubated for 5 mins followed by substrate addition measured after 90 mins by dialysis assay relative to control
# Set-up: scale not given: the % may be the effect or the level left
Output spec: scalar in %, unitless text.

Examples from the recorded data:
{"columns": ["molecule", "Activity (%)"],
 "data": [
  ["CN1CCN(C(=O)N[C@@H](Cc2ccccc2)C(=O)N[C@H](/C=C/S(=O)(=O)c2ccccc2)CCc2ccccc2)CC1", 0],
  ["CC(C)C[C@@H](/C=C/[N+](=O)[O-])NC(=O)[C@H](CC(C)C)NC(=O)OCc1ccccc1", 35],
  ["CC(C)C[C@@H](/C=C/[N+](=O)[O-])NC(=O)[C@H](Cc1ccccc1)NC(=O)OCc1ccccc1", 29]
]}

Moving on to the next molecule.
Lookup: Respond only with Activity recorded for CC(C)C[C@H](NC(=O)OCc1ccccc1)C(=O)N[C@H](/C=C/[N+](=O)[O-])CCc1ccccc1
Found: 76

---

# systemUnderTest: Procathepsin L (Homo sapiens, UniProt P07711)
# Sequence (P07711 whole entry): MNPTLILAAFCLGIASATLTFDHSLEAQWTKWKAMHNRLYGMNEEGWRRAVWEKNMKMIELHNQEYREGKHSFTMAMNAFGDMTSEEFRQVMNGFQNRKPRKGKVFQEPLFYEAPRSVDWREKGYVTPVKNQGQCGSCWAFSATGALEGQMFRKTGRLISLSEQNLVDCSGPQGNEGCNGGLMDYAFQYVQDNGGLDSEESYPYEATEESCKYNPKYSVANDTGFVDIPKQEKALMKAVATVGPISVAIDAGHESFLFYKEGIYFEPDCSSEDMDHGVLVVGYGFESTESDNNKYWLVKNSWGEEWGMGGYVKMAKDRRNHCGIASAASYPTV
quantityMeasured: Ki (nM)
Output spec: scalar in nM, unitless text.

Examples from the recorded data:
{"columns": ["molecule", "Ki (nM)"],
 "data": [
  ["C[C@@H](/C=C/[N+](=O)[O-])NC(=O)[C@H](Cc1ccccc1)NC(=O)OCc1ccccc1", 11],
  ["CC(C)C[C@@H](/C=C/[N+](=O)[O-])NC(=O)[C@H](Cc1ccccc1)NC(=O)OCc1ccccc1", 30],
  ["C/C(=C\\[C@H](C)NC(=O)[C@H](CC(C)C)NC(=O)OCc1ccccc1)[N+](=O)[O-]", 2020],
  ["CC(C)C[C@H](NC(=O)OCc1ccccc1)C(=O)N[C@@H](C)/C=C/[N+](=O)[O-]", 200],
  ["CC(C)C[C@@H](/C=C/[N+](=O)[O-])NC(=O)[C@H](CC(C)C)NC(=O)OCc1ccccc1", 46]
]}

Lookup: Find Ki for O=C(N[C@@H](Cc1ccccc1)C(=O)N[C@H](/C=C/[N+](=O)[O-])CCc1ccccc1)OCc1ccccc1 on Procathepsin L (Homo sapiens, UniProt P07711) and write it down.
Found: 19.6

Lookup: Find Ki for O=C(N[C@@H](Cc1ccccc1)C(=O)N[C@H](/C=C/[N+](=O)[O-])Cc1ccccc1)OCc1ccccc1 on Procathepsin L (Homo sapiens, UniProt P07711) and write it down.
Found: 110

Lookup: Find Ki for CC(C)C[C@H](NC(=O)OCc1ccccc1)C(=O)N[C@H](/C=C/[N+](=O)[O-])CCc1ccccc1 on Procathepsin L (Homo sapiens, UniProt P07711) and write it down.
Found: 27

Lookup: Find Ki for CC(C)C[C@H](NC(=O)OCc1ccccc1)C(=O)N[C@H](/C=C/[N+](=O)[O-])Cc1ccccc1 on Procathepsin L (Homo sapiens, UniProt P07711) and write it down.
Found: 49

Lookup: Find Ki for C/C(=C\[C@H](C)NC(=O)[C@H](Cc1ccccc1)NC(=O)OCc1ccccc1)[N+](=O)[O-] on Procathepsin L (Homo sapiens, UniProt P07711) and write it down.
Found: 280
